measurement.notes: Pharmacokinetic experiment on SD rats (iv and intragastric)
Type: in vivo
condition.details: Sprague-Dawley, rat, plasma, po, ig 5.00 mg/kg vs iv 1.00 mg/kg, read-out: Oral bioavailability Fobs

{"compound": "CN(C)c1cc2nn([C@H]3CC[C@H](CN4CC[C@@H](n5cc6cc(C7CCC(=O)NC7=O)c(F)cc6n5)[C@@H](F)C4)CC3)cc2cc1NC(=O)c1cnn2cccnc12 (stereo partly shown) [TM-135]", "bioavailability, %": 33.2}

* * *

experimental.target: IRAK4 (Homo sapiens, UniProt Q9NWZ3)
Construct: Effect of the Compounds on IRAK4 Protein Degradation in THP1 Cells; endogenous in cells; host or cells: THP-1 cells
Sequence (Q9NWZ3 whole entry): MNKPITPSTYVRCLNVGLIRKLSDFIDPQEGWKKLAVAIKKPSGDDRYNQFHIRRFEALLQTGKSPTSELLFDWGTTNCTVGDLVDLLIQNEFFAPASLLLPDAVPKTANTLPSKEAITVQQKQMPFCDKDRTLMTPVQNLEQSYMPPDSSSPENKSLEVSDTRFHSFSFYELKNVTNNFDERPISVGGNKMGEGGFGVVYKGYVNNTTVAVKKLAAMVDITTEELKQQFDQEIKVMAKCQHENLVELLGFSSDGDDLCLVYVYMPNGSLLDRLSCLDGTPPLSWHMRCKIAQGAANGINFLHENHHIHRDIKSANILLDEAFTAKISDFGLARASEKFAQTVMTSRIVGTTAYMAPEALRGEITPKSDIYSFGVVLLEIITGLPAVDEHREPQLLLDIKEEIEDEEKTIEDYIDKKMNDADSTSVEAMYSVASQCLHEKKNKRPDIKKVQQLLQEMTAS
measurement.notes: IRAK4 protein degradation in THP1 cells (Western blot)
Assay type: cell-based
condition.details: THP-1 cells, 24 h
Quick reference: log10 of DC50 of the listed items.
measured.quantity: log10 of DC50 (log10 of the value in nM)

{"compound": "CN(C)c1cc2nn([C@H]3CC[C@H](CN4CCC5(CC4)C[C@@H](n4cc6cc(F)c(C7CCC(=O)NC7=O)cc6n4)CO5)CC3)cc2cc1NC(=O)c1cnn2cccnc12 (some centres unmarked) [TM-140]", "experimental.target": "IRAK4 (Homo sapiens, UniProt Q9NWZ3)", "recorded.measurement": 1.14}
{"compound": "CN(C)c1cc2nn([C@H]3CC[C@H](CN4CCC(n5cc6cc(F)c(N7CCC(=O)NC7=O)cc6n5)CC4)CC3)cc2cc1NC(=O)c1cnn2cccnc12 [TM-10]", "experimental.target": "IRAK4 (Homo sapiens, UniProt Q9NWZ3)", "recorded.measurement": 0.60}
{"compound": "CN(C)c1cc2nn([C@H]3CC[C@H](CN4CC[C@@H](n5cc6cc(N7CCC(=O)NC7=O)ccc6n5)[C@@H](F)C4)CC3)cc2cc1NC(=O)c1cnn2cccnc12 [TM-15]", "experimental.target": "IRAK4 (Homo sapiens, UniProt Q9NWZ3)", "recorded.measurement": 0.15}
{"compound": "CN(C)c1cc2nn([C@H]3CC[C@H](CN4CC[C@@H](n5cc6cc(N7CCC(=O)NC7=O)ccc6n5)[C@H](F)C4)CC3)cc2cc1NC(=O)c1cnn2cccnc12 [TM-16]", "experimental.target": "IRAK4 (Homo sapiens, UniProt Q9NWZ3)", "recorded.measurement": -0.39}
{"compound": "CN(C)c1cc2nn([C@H]3CC[C@H](CN4CC[C@@H](n5cc6cc(C7CCC(=O)NC7=O)c(F)cc6n5)[C@@H](F)C4)CC3)cc2cc1NC(=O)c1cnn2cccnc12 (some centres unmarked) [TM-135]", "experimental.target": "IRAK4 (Homo sapiens, UniProt Q9NWZ3)", "recorded.measurement": 0.09}
